Tested on: HCC1954 cells
ASSAY PROCEDURE: Cytotoxicity
Type: cell-based
ASSAY CONDITIONS: read-out: Free payload IC50
Known IC50 of a selection of compounds
ASSAY METRIC: IC50

1. CCc1c2c(nc3ccc(O)cc13)-c1cc3c(c(=O)n1C2)COC(=O)[C@]3(O)CC [SN-38]    ~1.8 nM
2. CC[C@@]1(O)C(=O)OCc2c1cc1n(c2=O)Cc2c-1nc1cc(F)c(C)c3c1c2[C@@H](NC(=O)CO)CC3 [DXd]    ~6.2 nM
